Biological target: FP-receptor (Felis catus, UniProt A0ABI7XJ69)
Sequence (A0ABI7XJ69 entry or part of it): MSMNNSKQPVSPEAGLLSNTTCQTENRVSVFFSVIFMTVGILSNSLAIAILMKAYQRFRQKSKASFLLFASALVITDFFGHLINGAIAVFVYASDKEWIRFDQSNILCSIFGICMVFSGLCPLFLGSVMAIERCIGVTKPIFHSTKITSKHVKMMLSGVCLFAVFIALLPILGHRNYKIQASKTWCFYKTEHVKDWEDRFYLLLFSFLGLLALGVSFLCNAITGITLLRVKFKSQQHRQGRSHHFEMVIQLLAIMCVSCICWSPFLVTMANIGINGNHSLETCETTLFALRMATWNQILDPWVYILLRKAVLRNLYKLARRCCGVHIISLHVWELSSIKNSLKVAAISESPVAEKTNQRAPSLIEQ
Test: Functional FP-receptor study, cat iris sphincter muscle contraction
Conditions: text restating Table I; read-out: concentration needed to stimulate the FP-receptor at 50% efficacy
Provide the reported EC50 of each item.
Answer format: numeric, nM implied, no suffix.

For the compound O=C(O)CCCC=CCC1C(O)CC(O)C1CCC(=O)CCc1ccccc1 (centres unmarked) , what EC50 is on record?
260

Name the recorded EC50 for O=C(O)CCC/C=C\C[C@@H]1[C@@H](CC[C@@H](O)CCc2ccccc2)[C@H](O)C[C@@H]1O .
10

###

Molecular target: EP2-receptors (Cavia porcellus)
Sequence (A0A286XDB1 1-359): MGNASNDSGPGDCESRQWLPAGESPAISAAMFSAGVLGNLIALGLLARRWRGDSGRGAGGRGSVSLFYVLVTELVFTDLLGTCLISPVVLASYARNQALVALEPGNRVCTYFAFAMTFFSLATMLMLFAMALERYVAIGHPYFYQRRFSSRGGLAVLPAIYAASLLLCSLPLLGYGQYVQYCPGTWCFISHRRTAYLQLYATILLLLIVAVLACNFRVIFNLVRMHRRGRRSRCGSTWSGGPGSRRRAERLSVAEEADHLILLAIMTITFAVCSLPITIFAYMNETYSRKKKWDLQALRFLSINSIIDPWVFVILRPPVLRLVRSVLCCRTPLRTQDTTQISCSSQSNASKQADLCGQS
Assay: EP2-receptor activity, guinea-pig ileum twitch inhibition
Format: cell-based
Conditions: smooth muscle bath, guinea-pig ileum
experimental endpoint: EC50 (µM)
// note: answer is a bare numeric in µM

Which EC50 reading was recorded for the compound O=C(O)CCC/C=C\C[C@@H]1[C@@H](CC[C@@H](O)CCc2ccccc2)[C@H](O)C[C@@H]1O ?
530

###

Molecular target: EP1-receptor (Bos taurus)
Sequence (F1MUY4 1-407): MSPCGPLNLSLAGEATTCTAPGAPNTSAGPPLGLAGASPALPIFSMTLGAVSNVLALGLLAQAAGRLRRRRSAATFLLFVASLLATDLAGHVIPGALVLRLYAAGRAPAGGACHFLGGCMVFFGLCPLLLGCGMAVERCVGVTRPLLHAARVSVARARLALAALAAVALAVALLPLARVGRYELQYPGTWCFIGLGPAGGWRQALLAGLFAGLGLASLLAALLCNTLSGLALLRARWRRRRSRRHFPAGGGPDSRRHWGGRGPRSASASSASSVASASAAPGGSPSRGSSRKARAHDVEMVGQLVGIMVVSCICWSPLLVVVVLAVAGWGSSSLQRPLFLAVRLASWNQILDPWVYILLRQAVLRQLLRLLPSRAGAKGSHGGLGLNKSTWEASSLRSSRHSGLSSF
Assay: EP1-receptor activity, bovine iris sphincter muscle
Assay type: cell-based
Details: read-out: EC50 EP1; smooth muscle bath, bovine iris sphincter
experimental endpoint: pEC50
Schema: pEC50 number; meaning minus log10 of the concentration expressed in molar units.

I am curious: what pEC50 value has been reported for O=C(O)CCCC=CCC1C(O)CC(O)C1CCC(=O)CCc1ccccc1 (stereo not shown) [15-keto Latanoprost Acid] ?
4.55
